# Experimental Target: Mitogen-activated protein kinase kinase kinase 2 (Homo sapiens) (UniProt Q9Y2U5)
# Procedure Details: wildtype MEKK2 PB1-MEK5 interaction enhancers or blockers – biochemical, single concentration, multiplex bead flow cytometry, confirmation (AID 1892)
# Assay Context: Alexa488-MEK5 binding to MEKK2 WT, at 10 µM, actives lie on both sides
Among all 5,900 compounds or so, about 140 (2.4%) were called active. Rule as the data show it: active = binding response below about 16% or above about 210%; inactive = in between. The sample holds actives, similar compounds and a random draw of the others, so the mix is not that of the screen.
Output constraint: value belongs to YES for active, NO for inactive

> print(dat)
                                    compound  class.assignment
 1        Cc1c(-c2ccccc2)cn2c1-c1ccc(C)n1CC2                NO
 2              C=CCn1c(P(C)(=O)O)nc2ccccc21                NO
 3  O=C(CSc1ccc(-c2ccc(F)cc2)nn1)Nc1ccc2c(c1)OCCO2                NO
 4  COc1cc(/C=C2\SC(=S)N(Nc3ncc(C(F)(F)F)cc3Cl)C2=O)cc(OC)c1OC                NO
 5  CCOC(=O)C(NS(=O)(=O)c1ccc(C)cc1)(C(F)(F)F)P(=O)(OCC(C)C)OCC(C)C (stereo unspecified)                NO
 6    Cc1c(C#N)c2ncn(CC#N)c(=O)c2n1-c1ccccc1                NO
 7  Cc1cc(C)nc(-n2ncc3c2CC(c2ccc(C(C)C)cc2)CC3=O)n1 (stereo unspecified)                NO
 8  CCN(CC)CCCNC(=O)c1ccc2c(=O)n(Cc3ccc4c(c3)OCO4)c(=S)[nH]c2c1                NO
 9            Cc1[nH]c2ccc(S(N)(=O)=O)cc2c1C                NO
10  O=C(NCCCN1CCN(c2ccc(F)cc2)CC1)Nc1ccc([N+](=O)[O-])cc1                NO

Dear all, I need the recorded test outcome for COc1cc(C)nc(N2CCCC(C(=O)NCC(C)C)C2)n1 (stereo unspecified) , thank you.
NO

Dear all, I need the recorded test outcome for CCO[C@H]1OC(C(=O)N2CCOCC2)=C[C@@H](c2ccc3c(c2)OCO3)[C@@H]1CCCO , thank you.
NO

Dear all, I need the recorded test outcome for c1ccc2c(c1)C(=NC1CCCCC1)NC2=NC1CCCCC1 , thank you.
NO

Dear all, I need the recorded test outcome for CC1(C)OC(=O)N2CCc3ccccc3C21C (stereo unspecified) , thank you.
NO

Dear all, I need the recorded test outcome for COc1ccc(C(=O)C[n+]2ccc(C)cc2)cc1 , thank you.
NO

Dear all, I need the recorded test outcome for CCC(=C/c1sc2ccc3ccccc3c2[n+]1C)/C=C1\Sc2ccc3ccccc3c2N1C , thank you.
YES

The measurements presented in this section are drawn from PubChem BioAssay AID1892.
